test.system: T1, human TIM3, full length, on cells (human, UniProt Q8TDQ0 22-301)
T1 construct: CHO-K1 cells were transfected with a plasmid for full-length human Tim3; other cells carry endogenous TIM3; also called huTIM-3; CHO-Tim3
procedure.details: cell ELISA, CHO-K1 with full-length human Tim3
Entries and their Inflexion point

binder	Inflexion point / ng/mL
anti-TIM3 antibody Tim3_0016 variant (Tim3_0018) (antibody, V domains shown, Mouse monoclonal from hybridoma; also called TIM3-0016 variant (0018); Tim3_0016 variant 0018-A488) VH: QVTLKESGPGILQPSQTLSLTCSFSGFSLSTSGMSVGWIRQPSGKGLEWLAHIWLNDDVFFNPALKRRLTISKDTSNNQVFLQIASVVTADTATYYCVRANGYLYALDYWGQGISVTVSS VL: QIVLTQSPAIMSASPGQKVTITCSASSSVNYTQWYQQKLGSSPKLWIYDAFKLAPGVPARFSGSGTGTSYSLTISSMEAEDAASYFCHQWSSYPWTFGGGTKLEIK	29.4
Tim3_0018MutNQ (antibody, V domains shown, made in HEK293; also called Tim3_0016 variant (0018) with HVR-L1 variant 1_NQ) VH: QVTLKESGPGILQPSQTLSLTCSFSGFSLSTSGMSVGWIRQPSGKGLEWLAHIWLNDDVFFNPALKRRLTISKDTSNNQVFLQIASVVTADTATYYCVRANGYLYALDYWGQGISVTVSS VL: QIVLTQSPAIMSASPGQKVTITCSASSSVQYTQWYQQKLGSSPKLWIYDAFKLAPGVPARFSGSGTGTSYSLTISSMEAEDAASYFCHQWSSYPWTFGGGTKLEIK	12.8
Tim3_0016MutNS (antibody, V domains shown, also called Tim3_0016 with HVR-L1 variant 2_NS) VH: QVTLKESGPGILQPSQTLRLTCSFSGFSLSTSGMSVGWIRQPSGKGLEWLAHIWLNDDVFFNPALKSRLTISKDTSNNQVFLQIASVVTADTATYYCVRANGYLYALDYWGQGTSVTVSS VL: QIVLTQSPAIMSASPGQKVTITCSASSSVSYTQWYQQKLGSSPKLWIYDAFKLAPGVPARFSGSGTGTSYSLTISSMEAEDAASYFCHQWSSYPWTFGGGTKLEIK	8.5
Tim3_0016MutNQ (antibody, V domains shown, also called Tim3_0016 with HVR-L1 variant 1_NQ) VH: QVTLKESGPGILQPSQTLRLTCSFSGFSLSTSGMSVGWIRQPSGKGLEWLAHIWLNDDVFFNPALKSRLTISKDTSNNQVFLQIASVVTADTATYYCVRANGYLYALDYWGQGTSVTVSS VL: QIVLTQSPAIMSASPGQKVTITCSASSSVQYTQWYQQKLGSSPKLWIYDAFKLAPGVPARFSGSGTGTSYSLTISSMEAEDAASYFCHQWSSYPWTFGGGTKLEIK	5.4
